Data origin, for the record: ChEMBL document CHEMBL1156818

molecular target: Indoleamine 2,3-dioxygenase 1 (Homo sapiens, UniProt P14902); experiment: Inhibition of human recombinant IDO expressed in HEK293 cells assessed as blockade of tryptophan degradation by HPLC; type: cell-based
Sequence (P14902 whole entry): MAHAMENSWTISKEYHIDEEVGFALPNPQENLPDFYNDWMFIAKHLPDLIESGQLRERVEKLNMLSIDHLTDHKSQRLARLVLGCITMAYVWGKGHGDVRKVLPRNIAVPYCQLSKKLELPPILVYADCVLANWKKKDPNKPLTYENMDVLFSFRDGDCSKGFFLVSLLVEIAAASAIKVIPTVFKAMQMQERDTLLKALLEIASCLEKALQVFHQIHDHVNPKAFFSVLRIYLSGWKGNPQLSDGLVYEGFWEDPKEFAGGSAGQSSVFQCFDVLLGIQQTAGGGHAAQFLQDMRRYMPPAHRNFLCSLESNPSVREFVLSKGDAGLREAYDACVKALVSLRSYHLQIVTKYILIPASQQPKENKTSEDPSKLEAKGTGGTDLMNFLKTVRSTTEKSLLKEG
pIC50: recorded values
Quick note: pIC50 means taking -log10 of the concentration in moles per liter.

| Compound | Target Or Test System | Attribute Measured | Measurement |
| --- | --- | --- | --- |
| CC(C)/N=C1/C=C(C2=C/C(=N\C(C)C)c3ccccc3C2=O)C(=O)c2ccccc21 | Indoleamine 2,3-dioxygenase 1 (Homo sapiens, UniProt P14902) | pIC50 | 4.60 |
| SC1Nc2ccccc2S1 (stereo not given) | Indoleamine 2,3-dioxygenase 1 (Homo sapiens, UniProt P14902) | pIC50 | 5.15 |
| CCC(CC)/N=C1/C=C(C2=C/C(=N\C(CC)CC)c3ccccc3C2=O)C(=O)c2ccccc21 | Indoleamine 2,3-dioxygenase 1 (Homo sapiens, UniProt P14902) | pIC50 | 4.30 |

Let's switch to this compound now.
Quote pIC50 reported for `CC(C)Nc1ccc(O)c2ccccc12` please.
4.90

====

molecular target: Indoleamine 2,3-dioxygenase 1 (Homo sapiens, UniProt P14902); conditions: read-out: IC50
Attribute Measured: log10 of IC50 (log10 of the value in µM)
Remember, log10 of IC50, in µM.

Some solved entries appear below for comparison.
| Compound | log10 of IC50 |
| --- | --- |
| O=C(c1ccccc1)c1ccccc1 | 3.00 |
| CCC(CC)Nc1ccc(O)c2ccccc12 | 0.54 |
| Nc1ccc(Nc2ccccc2)cc1 | 2.60 |
| N[C@@H](CO)C(=O)Nc1ccc(O)c2ccccc12 | 2.60 |
| NCCCNc1ccc(O)c2ccccc12 | 0.70 |
| CN(C)CSC1Nc2ccccc2S1 (centres undefined) | 1.70 |
| SC1Nc2cc(Cl)ccc2S1 (centres undefined) | 1.70 |
| C[C@@H](N)C(=O)Nc1ccc(O)c2ccccc12 | 1.95 |
| OCCOc1ccc(O)c2ccccc12 | 1.10 |
| CCCNc1ccc(O)c2ccccc12 | 0.65 |

Quote log10 of IC50 reported for `COc1ccc(N)c2ccccc12` please.
0.74

Write down log10 of IC50 measured for item `CC(C)Nc1ccc(O)c2ccccc12`
0.40

Consider the compound `NCC(=O)Nc1ccc(O)c2ccccc12` and give its recorded log10 of IC50.
2.02

Answer with the recorded log10 of IC50 for the compound listed here: `c1cncc(-c2c[nH]nn2)c1`
2.83

Return log10 of IC50 (reported value) for this compound: `CC(C)/N=C1/C=C(C2=C/C(=N\C(C)C)c3ccccc3C2=O)C(=O)c2ccccc21`
-0.35

Give the measured log10 of IC50 for `Nc1ccc(O)c2ncccc12`
0.48

Dear colleague, please send me the reported log10 of IC50 for `CN(C)c1ccc(O)c2ccccc12` when you can.
3.00

====

Known CC50 of a selection of compounds
assay: Cytotoxicity against mouse P815B cells expressing mouse recombinant IDO by MTT assay; assay type: cell-based; conditions: read-out: LD50 (the source's name)

| Compound | CC50 |
| --- | --- |
| Sc1nc(-c2ccccc2)cs1 | > 80 µM |
| CCC(CC)/N=C1/C=C(C2=C/C(=N\C(CC)CC)c3ccccc3C2=O)C(=O)c2ccccc21 | 200 µM |
| CC(C)/N=C1/C=C(C2=C/C(=N\C(C)C)c3ccccc3C2=O)C(=O)c2ccccc21 | 50 µM |
| c1ccc(-c2cnn[nH]2)cc1 | > 80 µM |
| CCCNc1ccc(O)c2ccccc12 | 20 µM |

Next:
Supply CC50 value. Item: Cn1cc(C[C@H](N)C(=O)O)c2ccccc21 [(L)-1-METHYLTRYPTOPHAN]
> 1000 µM
